System: HepG2
Experimental details: Cytotoxicity against human HepG2 cells after 48 hrs by MTT assay
Assay type: functional, cell-based
Test conditions: HepG2, 48 h
pIC50: −log10 of the molar value.
Metric name: pIC50

{"Structure": "CNC(=O)CSc1nc2ccc(NC(C)=O)cc2s1", "Metric name": "pIC50", "Result": "< 4.00"}
{"Structure": "COc1ccc(CNC(=O)CSc2nc3ccc(NC(=O)c4ccc([N+](=O)[O-])cc4)cc3s2)cc1", "Metric name": "pIC50", "Result": "< 4.00"}
{"Structure": "CNC(=O)CSc1nc2ccc(NC(=O)c3ccc([N+](=O)[O-])cc3)cc2s1", "Metric name": "pIC50", "Result": "< 4.00"}

Ref: ChEMBL document CHEMBL1667844
